Parameter: EC50. Scope: all listed entries.
- Tested on: HBV rcDNA
- assay-notes: HepDE19 assay with bDNA quantitation of HBV rcDNA
- Assay type: cell-based, hepatitis B virus
- recorded-conditions: Hepatitis B virus, HepDE19, HepDE19 assay, inhibition of formation of rcDNA; read-out: DE-19bDNA EC50
API: value field is a number in nM; no unit string.

Worked cases, EC50 given:
COc1ccc2c(C(C)N(C)C(=O)Nc3ccc(F)c(Cl)c3)c[nH]c(=O)c2c1 (racemic) | 380
CC(c1c[nH]c(=O)c2ccccc12)N(CC1CCOC1)C(=O)Nc1ccc(F)c(Cl)c1 (stereo not shown) | 1400
CCN(Cc1cn(C)c(=O)c2ccccc12)C(=O)Nc1ccc(F)c(Cl)c1 | 260

Next item in the queue.
What value of measured EC50 is listed for `CCCN(C(=O)Nc1ccc(F)c(C)c1)[C@H](C)c1c[nH]c(=O)c2ccccc12` ?
10

----------
- System: HBV rcDNA
- assay-notes: HepDE19 assay with bDNA quantitation of HBV rcDNA
- Type: cell-based, hepatitis B virus
- recorded-conditions: HepDE19 assay, inhibition of formation of relaxed circular DNA (rcDNA), bDNA quantitation; read-out: DE-19bDNA EC50
Measured pEC50 accompanies every entry in the list below.
// pEC50: -log10(molar conc.)

As a guide, the following entries are already answered.
CC(c1c[nH]c(=O)c2cc(F)c(F)cc12)N(C)C(=O)Nc1ccnc(Cl)c1 (single isomer, unassigned) [Compound 418] | 5.00
CC(c1c[nH]c(=O)c2c(F)c(F)ccc12)N(C)C(=O)Nc1cc(Cl)c(F)c(Cl)c1 (single isomer, unassigned) [Compound 452] | 7.33
CC(c1c[nH]c(=O)c2c(F)cc(F)cc12)N(CCCO)C(=O)Nc1ccc(F)cc1 (single isomer, unassigned) [Compound 377] | 4.96

Okay, next one:
# lookup: pEC50 of CC(c1c[nH]c(=O)c2c(F)c(F)ccc12)N(CCS(N)(=O)=O)C(=O)Nc1ccc(F)cc1 (single isomer, unassigned) [Compound 394]
5.00

----------
- Test system: HBV rcDNA
- assay-notes: HepDE19 assay with bDNA quantitation of HBV rcDNA
- Format: cell-based, hepatitis B virus
- recorded-conditions: HepDE19 assay, inhibition of formation of relaxed circular DNA (rcDNA), bDNA quantitation; read-out: DE-19bDNA EC50
attribute-measured: EC50 (nM)
Reply numerically in nM, unit not repeated.

Answered cases to consult:
CC(c1cnc(OCc2nc[nH]n2)c2cc(F)c(F)cc12)N(CCCO)C(=O)Nc1ccc(F)c(Cl)c1 (single isomer, unassigned) [Compound 365] | 9
CC(c1c[nH]c(=O)c2cc(F)c(F)cc12)N(CCCO)C(=O)Nc1ccc(F)c(Cl)c1 (single isomer, unassigned) [Compound 289] | 370

Recorded EC50 for CC(c1cnc(C#N)c2ccccc12)N(C)C(=O)Nc1ccc(F)c(Cl)c1 (single isomer, unassigned) [Compound 336] with HBV rcDNA, please?
19000

----------
- Tested on: HBV rcDNA
- assay-notes: HepDE19 assay with bDNA quantitation of HBV rcDNA
- Format: cell-based, hepatitis B virus
- recorded-conditions: Hepatitis B virus, HepDE19, HepDE19 assay, inhibition of formation of rcDNA; read-out: DE-19bDNA EC50
attribute-measured: pEC50
As a rule, pEC50 stands for the negative log10 of the concentration, concentration in M.

Example entries and their recorded answers appear below.
COc1ncc(CN(C)C(=O)Nc2ccc(F)c(C)c2)c2ccccc12 [Compound 3] | 5.96
CCCN(Cc1cnc(OC)c2ccccc12)C(=O)Nc1ccc(F)c(Cl)c1 [Compound 20] | 6.36
C[C@H](c1c[nH]c(=O)c2ccccc12)N(C)C(=O)Nc1ccc(F)c(Cl)c1 [Compound 14] | 7.40
COc1ncc(CN(CC2CC2)C(=O)Nc2ccc(F)c(Cl)c2)c2ccccc12 [Compound 31] | 6.06

Switching to the query record.
Provide value of pEC50 for this record tested with HBV rcDNA: CCN(C(=O)Nc1ccc(F)c(Cl)c1)C(c1cnc(OC)c2ccccc12)C(F)(F)F (single isomer, unassigned) [Compound 75]
5.35

----------
- Test system: HBV rcDNA
- assay-notes: HepDE19 assay with bDNA quantitation of HBV rcDNA
- Format: cell-based, hepatitis B virus
- recorded-conditions: Hepatitis B virus, HepDE19, HepDE19 assay, inhibition of formation of rcDNA; read-out: DE-19bDNA EC50
Catalogue of pEC50 values
In simple prose, pEC50 is minus the logarithm base ten of a concentration in moles per litre.

CC(c1c[nH]c(=O)c2cc(F)ccc12)N(C)C(=O)Nc1ccc(F)c(Cl)c1 (racemic) | 7.48
CC(c1cnc(NCCN)c2ccccc12)N(C)C(=O)Nc1ccc(F)c(Cl)c1 (racemic) | 5.57
CC(C)CN(C(=O)Nc1ccc(F)c(Cl)c1)C(C)c1c[nH]c(=O)c2cc(F)c(F)cc12 (single isomer, unassigned) | 6.68
CC(c1c[nH]c(=O)c2ccccc12)N(CC1CCN(C)CC1)C(=O)Nc1ccc(F)c(Cl)c1 (single isomer, unassigned) | 5.05
COCCn1cc(C(C)N(C)C(=O)Nc2ccc(F)c(Cl)c2)c2ccccc2c1=O (single isomer, unassigned) | 6.44
CCCCN(Cc1cnc(OC)c2ccccc12)C(=O)Nc1ccc(F)c(Cl)c1 | 6.21

Quick check: pEC50 on HBV rcDNA, item `COCCCN(Cc1cnc(OC)c2ccccc12)C(=O)Nc1ccc(F)c(Cl)c1` ?
5.70

For HBV rcDNA, provide pEC50 of Cc1cc(NC(=O)N(C)C(C)c2c(C)[nH]c(=O)c3ccccc23)ccc1F (racemic) please.
6.92

Look up pEC50 with HBV rcDNA for this compound: CC(c1c[nH]c(=O)c2ccccc12)N(CCC(=O)O)C(=O)Nc1ccc(F)c(Cl)c1 (single isomer, unassigned)
5.48

Lookup: pEC50 / HBV rcDNA / `C[C@H](c1c[nH]c(=O)c2ccccc12)N(C)C(=O)Nc1ccc(F)c(F)c1`
6.64

Which pEC50 is reported with HBV rcDNA for this entry: `CCCCN(Cc1c[nH]c(=O)c2ccccc12)C(=O)Nc1ccc(F)c(Cl)c1` ?
7.10

Recall the recorded pEC50 for `COc1ncc(CN(Cc2ccccc2)C(=O)Nc2ccc(F)c(Cl)c2)c2ccccc12` with HBV rcDNA and state it.
5.68

Hello, I am looking for reported pEC50 with HBV rcDNA for COc1ncc(C(C)N(CCCO)C(=O)Nc2ccc(F)c(Cl)c2)c2ccccc12 (single isomer, unassigned) . Could you help?
6.64

Query the reported pEC50 for HBV rcDNA; item: `O=C(Nc1ccc(F)c(Cl)c1)N(CCO)Cc1c[nH]c(=O)c2ccccc12`
6.00

Give recorded pEC50 with HBV rcDNA for the following compound: CC(C)CN(C(=O)Nc1ccc(F)c(Cl)c1)C(C)c1cn(CC(F)(F)F)c(=O)c2ccccc12 (racemic)
7.15

----------
- Test system: HBV rcDNA
- assay-notes: HepDE19 assay with bDNA quantitation of HBV rcDNA
- Format: cell-based, hepatitis B virus
- recorded-conditions: Hepatitis B virus, HepDE19, read-out: DE-19bDNA EC50 (μM), HepDE19 assay, inhibition of formation of relaxed circular DNA (rcDNA), bDNA quantitation
attribute-measured: EC50 (µM)
Answer format: numeric, µM implied, no suffix.

Example compounds with recorded EC50:
CC(c1c[nH]c(=O)c2c(F)c(F)ccc12)N(C)C(=O)N[C@H](C)c1ccccc1 (single isomer, unassigned) [Compound 488] | 9
CC(NC(=O)Nc1ccc(F)c(C#N)c1)c1c[nH]c(=O)c2cc(F)c(F)cc12 (stereo not shown) [Compound 495] | 0.33
CC(c1c[nH]c(=O)c2cc(F)c(F)cc12)N(C)C(=O)N[C@H](C)c1ccccc1 (single isomer, unassigned) [Compound 479] | 9.4

Please tell me: EC50 of C[C@H](c1c[nH]c(=O)c2ccccc12)N(C)C(=O)Nc1ccc(Br)cc1 [Compound 294] , system HBV rcDNA?
0.87

----------
- System: HBV rcDNA
- assay-notes: HepDE19 assay with bDNA quantitation of HBV rcDNA
- Format: cell-based, hepatitis B virus
- recorded-conditions: HepDE19 assay, inhibition of formation of relaxed circular DNA (rcDNA), bDNA quantitation; read-out: DE-19bDNA EC50
# label = criterion met if EC50 < 0.09 µM else criterion not met

Study these solved cases before continuing.
CC(c1c[nH]c(=O)c2ccccc12)N(Cc1nccs1)C(=O)Nc1ccc(F)c(Cl)c1 (single isomer, unassigned) [Compound 311] | criterion met
CC(c1c[nH]c(=O)c2ccc(F)cc12)N(CC1COC(C)(C)OC1)C(=O)Nc1ccc(F)c(Cl)c1 (single isomer, unassigned) [Compound 282] | criterion not met
CCN(C(=O)Nc1ccc(F)c(F)c1)C(C)c1c[nH]c(=O)c2cc(F)c(F)cc12 (single isomer, unassigned) [Compound 423] | criterion met
CC(c1cnc(OCc2nc[nH]n2)c2cc(F)c(F)cc12)N(CCCO)C(=O)Nc1ccc(F)c(Cl)c1 (single isomer, unassigned) [Compound 364] | criterion not met
CC(c1c[nH]c(=O)c2cc(F)c(F)cc12)N(C)C(=O)Nc1ccnc(Cl)c1 (single isomer, unassigned) [Compound 419] | criterion met

Lab note: EC50 threshold 0.09 µM. Does this compound come in strictly under it? CC(c1c[nH]c(=O)c2c(F)cccc12)N(CCS(N)(=O)=O)C(=O)Nc1ccc(F)c(Cl)c1 (single isomer, unassigned)
criterion not met

Please check: EC50 for CC(c1c[nH]c(=O)c2c(F)c(F)ccc12)N(C)C(=O)Nc1cccc(F)c1F (single isomer, unassigned) [Compound 458] , strictly under 0.09 µM or not?
criterion not met
